pIC50 tested on Purified ERAP1 (37-941)-10His (ERAP1) (Homo sapiens, UniProt Q9NZ08): recorded values
Sequence (Q9NZ08 37-941): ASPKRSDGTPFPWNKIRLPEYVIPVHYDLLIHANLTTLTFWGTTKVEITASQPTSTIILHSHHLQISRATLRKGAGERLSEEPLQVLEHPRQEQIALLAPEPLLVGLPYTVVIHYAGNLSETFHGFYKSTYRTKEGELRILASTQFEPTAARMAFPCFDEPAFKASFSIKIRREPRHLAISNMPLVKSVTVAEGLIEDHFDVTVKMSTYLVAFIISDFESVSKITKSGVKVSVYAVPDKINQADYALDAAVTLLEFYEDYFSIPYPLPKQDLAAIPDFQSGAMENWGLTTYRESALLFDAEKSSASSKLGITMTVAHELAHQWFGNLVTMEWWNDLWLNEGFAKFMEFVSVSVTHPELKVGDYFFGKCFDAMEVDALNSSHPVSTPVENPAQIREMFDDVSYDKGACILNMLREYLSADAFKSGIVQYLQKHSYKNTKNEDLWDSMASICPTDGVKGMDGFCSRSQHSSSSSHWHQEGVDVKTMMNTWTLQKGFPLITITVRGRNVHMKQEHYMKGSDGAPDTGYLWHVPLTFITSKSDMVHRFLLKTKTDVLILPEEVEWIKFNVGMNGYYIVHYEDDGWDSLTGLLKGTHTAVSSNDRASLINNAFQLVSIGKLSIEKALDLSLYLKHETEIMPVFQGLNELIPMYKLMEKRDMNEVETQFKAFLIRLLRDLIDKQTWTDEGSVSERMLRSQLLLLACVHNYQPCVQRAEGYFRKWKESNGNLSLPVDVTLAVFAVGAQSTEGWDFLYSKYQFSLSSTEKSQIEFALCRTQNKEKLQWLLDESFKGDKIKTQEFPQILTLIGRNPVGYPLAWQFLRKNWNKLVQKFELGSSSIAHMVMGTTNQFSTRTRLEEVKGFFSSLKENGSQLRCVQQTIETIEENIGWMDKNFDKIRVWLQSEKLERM
pIC50: −log10 of the molar value.
reported metric: pIC50

compound | value reported
CCc1ccc(C(=O)O)cc1S(=O)(=O)Nc1cc(C(F)(F)F)ccc1N1C[C@H](C)C[C@H](C)C1 [Example 30] | > 6.30
COc1ccc(C(=O)O)cc1S(=O)(=O)Nc1cc(-n2cnnn2)ccc1N1CCC[C@@H](F)C1 [Example 265] | > 6.30
N#Cc1ccc(N2CCC(F)(F)CC2)c(NS(=O)(=O)c2cc(C(=O)O)ccc2C2CC2)c1 [Example 310] | > 6.30
COc1ccc(C(=O)O)cc1S(=O)(=O)Nc1cc(C(F)(F)F)ccc1N1CCC(F)CC1 [Example 206] | > 6.30
COc1ccc(C(=O)O)cc1S(=O)(=O)Nc1cc(S(C)(=O)=O)ccc1N1CCC[C@H](O)C1 [Example 246] | > 6.30
O=C(O)c1ccc(O)c(S(=O)(=O)Nc2cc(C(F)(F)F)ccc2N2CCCCC2)c1 [Example 161] | > 6.30
CCc1ccc(C(=O)O)cc1S(=O)(=O)Nc1cc(S(C)(=O)=O)ccc1N1CC(C)(O)C1 [Example 255] | > 5.30
COc1ccc(-c2nn[nH]n2)cc1S(=O)(=O)Nc1cc(C(F)(F)F)ccc1N1CCCCC1 [Example 171] | > 5.30
CCc1ccc(C(=O)O)cc1S(=O)(=O)Nc1cc(C#N)ccc1N1CCCCC1 [Example 215] | > 6.30
COc1ccc(C(=O)O)cc1S(=O)(=O)Nc1cc(C(F)(F)F)ccc1N1CC(C)(OC)C1 [Example 22] | < 5.30
COc1ccc(C(=O)O)cc1S(=O)(=O)Nc1cc(C#N)ccc1N1CCC(F)(F)CC1 [Example 221] | > 6.30
CCc1ccc(C(=O)O)cc1S(=O)(=O)Nc1cc(C(F)(F)F)ccc1N1CCC[C@H](F)C1 [Example 210] | > 6.30
CCc1ccc(C(=O)O)cc1S(=O)(=O)Nc1cc(C(F)(F)F)ccc1N1CCC(C#N)CC1 [Example 238] | > 6.30
CS(=O)(=O)c1ccc(N2CCC(F)CC2)c(NS(=O)(=O)c2cc(C(=O)O)ccc2C2CC2)c1 [Example 320] | > 6.30
COc1ccc(C(=O)O)cc1S(=O)(=O)Nc1cc(C(F)(F)F)ccc1N(C)C [Example 77] | > 5.30
COc1ccc(C(=O)O)cc1S(=O)(=O)Nc1cc(C(F)(F)F)ccc1N1CCCC(O)C1 (centres unmarked) [Example 177] | > 6.30
COc1ccc(C(=O)O)cc1S(=O)(=O)Nc1cc(C(F)(F)F)ccc1N1CCCCC1=O [Example 41] | > 6.30
